Tested on: MCF7
PROTOCOL_SUMMARY: Antiproliferative activity against human MCF7 cells expressing estrogen receptor after 72 hrs
Type: functional, cell-based
RECORDED_CONDITIONS: MCF7, 72 h
Some molecules, each annotated with its measured IC50.

MOLECULE: COC1=C2C[C@@H](C)C[C@H](OC)[C@H](O)[C@@H](C)/C=C(\C)[C@H](OC(N)=O)[C@@H](OC)/C=C\C=C(/C)C(=O)NC(=CC1=O)C2=O [GELDANAMYCIN]
IC50, nM: 9.8

MOLECULE: CO[C@H]1/C=C\C=C(/C)C(=O)NC2=CC(=O)C(NCCOCCOCCOCCc3cn(CN(C)CCOc4ccc([C@H]5C[C@]6(C)[C@@H](O)CC[C@H]6[C@@H]6CCc7cc(O)ccc7[C@H]65)cc4)nn3)=C(C[C@@H](C)C[C@H](OC)[C@H](O)[C@@H](C)/C=C(\C)[C@@H]1OC(N)=O)C2=O (stereo in doubt)
IC50, nM: 102

MOLECULE: CO[C@H]1/C=C\C=C(/C)C(=O)NC2=CC(=O)C(NCc3cn(CCOc4ccc([C@H]5C[C@]6(C)[C@@H](O)CC[C@H]6[C@@H]6CCc7cc(O)ccc7[C@H]65)cc4)nn3)=C(C[C@@H](C)C[C@H](OC)[C@H](O)[C@@H](C)/C=C(\C)[C@@H]1OC(N)=O)C2=O (stereo in doubt)
IC50, nM: 1150

MOLECULE: CO[C@H]1/C=C\C=C(/C)C(=O)NC2=CC(=O)C(NCCCCCNC(=O)c3ccc(CC4CCCCc5c(nnn5CCOc5ccc([C@H]6C[C@]7(C)[C@@H](O)CC[C@H]7[C@@H]7CCc8cc(O)ccc8[C@H]76)cc5)C4(F)F)cc3)=C(C[C@@H](C)C[C@H](OC)[C@H](O)[C@@H](C)/C=C(\C)[C@@H]1OC(N)=O)C2=O (stereo in doubt)
IC50, nM: 15200

Values from ChEMBL document CHEMBL2390943
